Taken from the supplement of paper PMC9170038.

# Test system: MS2 coat protein
# test.summary: apparent KD of MS2 coat protein; higher = weaker reporter binding
# protocol.conditions: Eterna round: R107; input ligand: theophylline 2 mM
Documented apparent KD of MS2 coat protein across a set of sequences

{"residue.sequence": "GUAGCGACGGCGGCCGCCACUCACAGGUGAGGGUAGACCAACCUUCACAUGAGGAUCACCCAUGUGAGGACCGGGCUGUCGCUAC [#13 Exclusion Tryptophan B]", "target.under.test": "MS2 coat protein", "apparent KD of MS2 coat protein, nM": 122}
{"residue.sequence": "GCACCAGGUACGGAUACCAGACGUUGCCAAUUGGGUGCACAUGAGGAUCACCCAUGUUCUGUCCCUUGGCAGCCGUACCUGGUGC [EThB NP+V+V2 #5]", "target.under.test": "MS2 coat protein", "apparent KD of MS2 coat protein, nM": 73.2}
{"residue.sequence": "GGGCCCGGGCGCGAGCCCGGGCCCAUUGAUACCAGUGAUAUAUGACGCCCUUGGCAGCGAAUCCUAACAUGAGGAUCACCCAUGU [5.H]", "target.under.test": "MS2 coat protein", "apparent KD of MS2 coat protein, nM": 81.6}

---

# Tested on: K4 kissing-loop RNA reporter;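 note: bound reporter read as fluorescence of individual clusters on recovered sequencing chips by microscopy, with normalized cluster intensities fitted with a binding model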
# test.summary: apparent KD of K4 kissing-loop reporter; higher = weaker reporter binding
# protocol.conditions: Eterna round: R107; input ligand: FMN 200 uM
Documented apparent KD of K4 kissing-loop reporter across a set of sequences
endpoint.label: apparent KD of K4 kissing-loop reporter (nM)

{"residue.sequence": "GGAUAGGACAGAGGAUAUGGACAGUCUACAAAGUAGGCUGAAAAUCCUUGAAUGGAAGUGAUGUUUCCAGAAGGCUGUCCUAUCG [FmnBX 20 - #SwitchBubble #StaticStem #Palindromic]", "target.under.test": "K4 kissing-loop RNA reporter", "endpoint.label": "apparent KD of K4 kissing-loop reporter", "measurement": 558}
{"residue.sequence": "CUGCCGUUUACAGAUACCAGACUAAUAACGGCAGCACAGAAUGUGAGUGAUGUUCGCAUAGUCCCUUGGCAGCUGUAUAACAGUA [Theo B Ex t3]", "target.under.test": "K4 kissing-loop RNA reporter", "endpoint.label": "apparent KD of K4 kissing-loop reporter", "measurement": 219}
{"residue.sequence": "UGGGUGUAGUGAUGUUAUAUAGAGAAUGAUACCAGCUUAGAGAGGAGCCCUUGGCAGCGUAGACGAGUAUCAUUGGAGGAGGAGG [#22 K4 Theophylline A Exclusion]", "target.under.test": "K4 kissing-loop RNA reporter", "endpoint.label": "apparent KD of K4 kissing-loop reporter", "measurement": 714}
{"residue.sequence": "CACUUACGUAGUGAUGUUACGAUCUCUGAUACCAGACAACUCUAAGUCCCUUGGCAGCAGUCAUUUUGCUUUUAAUUUACUCAAA [JR_ExcTheophyA_Sub014]", "target.under.test": "K4 kissing-loop RNA reporter", "endpoint.label": "apparent KD of K4 kissing-loop reporter", "measurement": 552}
{"residue.sequence": "CCAUCGCUAUUCGAUACCAGCCAGGAGGUCUUUGGCCUCCUAUUGGAGUGAUGUUCCAUAGGCCCUUGGCAGCGAAUAGUGAUGG [Theophylline B K4 16]", "target.under.test": "K4 kissing-loop RNA reporter", "endpoint.label": "apparent KD of K4 kissing-loop reporter", "measurement": 372}
{"residue.sequence": "AAUUUAUUAACUGAUACCAGACUAAUUUUAUUUAUUAAGUCAAGUGAUGUUUGACUUUAUGUCCCUUGGCAGCAGAAUUAAUUAA [JR_SSTheophyB_Sub019]", "target.under.test": "K4 kissing-loop RNA reporter", "endpoint.label": "apparent KD of K4 kissing-loop reporter", "measurement": 126}
